For each entry below, report its DC50 value.
Molecular target: SMARCA2-HiBiT HeLa cells (protein which is expressed from the SMARCA2 gene) (Homo sapiens, UniProt P51531)
Construct: protein which is expressed from the SMARCA2 and SMARCA4 genes; host or cells: HeLa (SMARCA2-HiBiT engineered line)
Sequence (P51531 whole entry): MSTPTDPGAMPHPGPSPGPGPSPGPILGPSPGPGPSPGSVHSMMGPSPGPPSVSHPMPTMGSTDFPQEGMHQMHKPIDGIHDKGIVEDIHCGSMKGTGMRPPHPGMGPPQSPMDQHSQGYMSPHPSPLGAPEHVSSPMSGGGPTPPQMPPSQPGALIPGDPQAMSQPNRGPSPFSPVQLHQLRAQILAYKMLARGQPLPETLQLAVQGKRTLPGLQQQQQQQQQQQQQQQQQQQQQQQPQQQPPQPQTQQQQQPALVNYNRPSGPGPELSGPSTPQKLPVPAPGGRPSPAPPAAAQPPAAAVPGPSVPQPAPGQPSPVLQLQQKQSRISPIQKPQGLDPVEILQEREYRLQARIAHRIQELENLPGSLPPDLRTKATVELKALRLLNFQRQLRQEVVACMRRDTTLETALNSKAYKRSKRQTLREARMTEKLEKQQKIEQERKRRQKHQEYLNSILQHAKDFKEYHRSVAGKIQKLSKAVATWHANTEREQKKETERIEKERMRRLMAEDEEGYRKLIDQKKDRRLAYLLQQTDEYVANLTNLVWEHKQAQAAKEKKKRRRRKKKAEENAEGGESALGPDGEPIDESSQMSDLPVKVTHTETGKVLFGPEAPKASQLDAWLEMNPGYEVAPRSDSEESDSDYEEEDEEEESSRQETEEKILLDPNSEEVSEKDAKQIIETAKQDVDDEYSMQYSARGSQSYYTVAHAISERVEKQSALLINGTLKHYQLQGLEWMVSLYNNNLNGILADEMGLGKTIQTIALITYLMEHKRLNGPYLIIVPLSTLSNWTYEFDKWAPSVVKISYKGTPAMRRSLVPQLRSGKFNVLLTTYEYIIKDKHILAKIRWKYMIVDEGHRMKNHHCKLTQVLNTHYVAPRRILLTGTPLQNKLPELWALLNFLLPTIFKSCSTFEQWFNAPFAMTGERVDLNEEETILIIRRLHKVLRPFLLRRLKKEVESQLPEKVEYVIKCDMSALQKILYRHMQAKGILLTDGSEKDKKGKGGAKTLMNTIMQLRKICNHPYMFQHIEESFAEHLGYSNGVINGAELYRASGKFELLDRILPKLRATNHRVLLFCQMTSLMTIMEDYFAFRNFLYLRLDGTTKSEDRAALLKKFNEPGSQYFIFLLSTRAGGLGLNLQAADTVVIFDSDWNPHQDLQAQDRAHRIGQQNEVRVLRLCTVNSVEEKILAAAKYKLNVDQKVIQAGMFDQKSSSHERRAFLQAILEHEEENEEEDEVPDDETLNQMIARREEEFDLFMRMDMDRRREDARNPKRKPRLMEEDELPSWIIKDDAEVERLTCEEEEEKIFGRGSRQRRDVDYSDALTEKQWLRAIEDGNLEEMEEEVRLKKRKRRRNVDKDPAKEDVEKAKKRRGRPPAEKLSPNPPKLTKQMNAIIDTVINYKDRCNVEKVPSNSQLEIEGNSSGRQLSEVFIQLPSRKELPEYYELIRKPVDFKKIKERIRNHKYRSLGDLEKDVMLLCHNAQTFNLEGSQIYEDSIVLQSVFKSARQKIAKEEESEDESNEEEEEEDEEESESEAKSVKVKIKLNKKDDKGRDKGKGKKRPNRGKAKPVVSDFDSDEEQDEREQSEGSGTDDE
Assay: SMARCA2 degradation assay (HiBiT-fusion HeLa cell line, 24 h, luminescence)
Type: cell-based
Text: SMARCA2 and SMARCA4 Degradation Assay Degradation of protein which is expressed from the SMARCA2 and SMARCA4 genes was monitored using engineered HiBiT-fusion HeLa cell lines from Promega. […] 24-hours post-treatment, protein levels were quantified with the addition of HiBiT lytic buffer, LgBiT protein, and HiBiT substrate, according to manufacturer's specifications. […]

[[record]]
compound = "Cc1cc(C(=O)NCC#Cc2nccc(N3CCN(c4cc(-c5ccccc5O)nnc4N)CC3)n2)nn1C [Compound P-12]"
result = "50 to 500 nM"

[[record]]
compound = "COC1CCN(CC#Cc2nccc(N3CCCN(c4cc(-c5ccccc5O)nnc4N)CC3)n2)CC1 [Compound P-378]"
result = "50 to 500 nM"

[[record]]
compound = "CC(C)(C)OC(=O)NCC#Cc1nccc(N2C3CCC2CN(c2cc(-c4ccccc4O)nnc2N)CC3)n1 (centres unmarked) [Compound P-303]"
result = "< 50 nM"

[[record]]
compound = "Nc1nnc(-c2ccccc2O)cc1N1CCN(c2ccnc(C#CCNC(=O)c3ccn(C4CC4)n3)n2)CC1 [Compound P-11]"
result = "< 50 nM"

[[record]]
compound = "Nc1nnc(-c2ccccc2O)cc1N1CCN(c2ccnc(C#CCNC(=O)c3cnc4ccccn34)n2)CC1 [Compound P-66]"
result = "50 to 500 nM"


Report DC50 for each item below.
1. Cc1cnc(C#CCN(C)C)nc1N1CCN(c2cc(-c3ccccc3O)nnc2N)CC[C@H]1C [Compound P-229]
2. Nc1nnc(-c2ccccc2O)cc1N1CCCN(c2ccnc(C#Cc3cccc4nccn34)n2)CC1 [Compound P-306]
3. CC(C#Cc1cc(N2CCN(c3cc(-c4ccccc4O)nnc3N)CC[C@H]2C)ccn1)N(C)C (some centres unmarked) [Compound P-399]
4. C[C@@H]1CCN(c2cc(-c3ccccc3O)nnc2N)CCN1c1ccnc(C#CCN2CCC[C@@H]2C)n1 [Compound P-233]

< 50 nM
500 to 5000 nM
< 50 nM
< 50 nM

Report DC50 for each item below.
1. Nc1nnc(-c2ccccc2O)cc1N1CCC2C1CCCN2c1ccnc(C#CCNC(=O)c2cc3ncccn3n2)n1 (centres unmarked) [Compound P-38]
2. C[C@@H]1CCN(c2cc(-c3ccccc3O)nnc2N)CCN1c1ccnc(C#C[C@@H](C)O)c1 [Compound P-401]
3. C[C@@H]1CCN(c2cc(-c3ccccc3O)nnc2N)CCN1c1ccnc(C#CCN2CC3CC2C3)n1 [Compound P-234]
4. Nc1nnc(-c2ccccc2O)cc1N1CCCN(c2ccnc(C#CCO)n2)CC1 [Compound P-125]

["500 to 5000 nM", "50 to 500 nM", "< 50 nM", "50 to 500 nM"]

Given the compound Nc1nnc(-c2ccccc2O)cc1N1CCN(c2ccnc(C#CCNC(=O)c3cnn4cccnc34)n2)CC1 [Compound P-71] , what is its reported DC50?
50 to 500 nM
